assay: Oral bioavailability in rat at 1 mg/kg measured up to 24 hrs; format: ADME, organism-based; details: in vivo
measure: bioavailability (%)

INSERT INTO results (smiles_structure, measure, endpoint_unit, obs_value) VALUES
  ('CC1=C(CN2CC(C(=O)O)C2)CCc2cc(OC[C@@H](C)Cc3ccc(F)cc3)ccc21.Cl', 'bioavailability', '%', 75);

* * *

tested on: Plasma; experiment: Plasma concentration in rat at 1 mg/kg, po; assay type: ADME, organism-based; set-up: dose 1 mg/kg, route oral; details: in vivo
Consider the following compounds and their measured Cp readings.
measure: Cp

INSERT INTO assay_data (smiles_structure, measure, obs_value) VALUES
  ('CC1=C(CN2CC(C(=O)O)C2)CCc2cc(OCCCCc3ccccc3)ccc21', 'Cp', '53 ng/mL'),
  ('CC1=C(CN2CC(C(=O)O)C2)CCc2cc(OC[C@@H](C)Cc3ccc(F)cc3)ccc21.Cl', 'Cp', '69 ng/mL'),
  ('CC1=C(CN2CC(C(=O)O)C2)CCc2cc(OC[C@@H](C)Cc3ccc(Cl)cc3)ccc21.Cl', 'Cp', '87 ng/mL'),
  ('CC1=C(CN2CC(C(=O)O)C2)CCc2cc(OCCCc3ccc(F)cc3)ccc21.Cl', 'Cp', '88 ng/mL');
